method.description: Caco-2 cell monolayers intrinsic permeation assay in the presence of efflux inhibitors
Type: in vitro ADME
test.settings: Caco-2, with efflux inhibitors
# if value of Papp A→B reaches 3 ×10⁻⁶ cm/s, tag met; if it stays below, tag not met

(Q) Evaluate C=C1C[C@@H]2CC[C@H]1[C@@H](C(=O)N1CCC(C(=O)c3cn(-c4ccc(F)cc4C(=O)N(C(C)C)C(C)C)c4cnccc34)CC1)N2 [Example 18] : Papp A→B at minimum 3 ×10⁻⁶ cm/s?
(A) met

(Q) Evaluate CC(C)N(C(=O)c1cc(F)ccc1-n1cc(C(=O)C2CCN(C[C@H]3CC[C@H](NS(C)(=O)=O)CC3)CC2)c2ccncc21)C(C)C [Example 17] : Papp A→B at minimum 3 ×10⁻⁶ cm/s?
(A) not met

(Q) Evaluate CC(C)N(C(=O)c1cc(F)ccc1-n1cc(C(=O)C2CN(C(=O)[C@H]3N[C@@H]4CC[C@H]3C4)C2)c2ccnc(F)c21)C(C)C [Example 15] : Papp A→B at minimum 3 ×10⁻⁶ cm/s?
(A) met

(Q) Evaluate C[C@@H]1COC[C@@H](C)N1C(=O)c1cc(F)ccc1-n1cc(C(=O)C2CCN(C(=O)[C@H]3N[C@@H]4CC[C@H]3C4)CC2)c2ccncc21 [Example 34] : Papp A→B at minimum 3 ×10⁻⁶ cm/s?
(A) not met

(Q) Evaluate CC(C)c1ncccc1-c1cc(F)ccc1-n1cc(C(=O)C2CN(C(=O)[C@H]3N[C@@H]4CC[C@H]3C4)C2)c2ccncc21 [Example 10] : Papp A→B at minimum 3 ×10⁻⁶ cm/s?
(A) not met

(Q) Evaluate CC(C)c1ncncc1-c1cc(F)ccc1-n1cc(C(=O)C2CCN(C(=O)[C@H]3N[C@@H]4CC[C@H]3C4)CC2)c2ccncc21 [Example 37] : Papp A→B at minimum 3 ×10⁻⁶ cm/s?
(A) not met

----------
experimental.target: Menin protein (Homo sapiens, UniProt O00255, DEL460-519)
Sequence (O00255 with tags, fused parts or gaps DEL460-519): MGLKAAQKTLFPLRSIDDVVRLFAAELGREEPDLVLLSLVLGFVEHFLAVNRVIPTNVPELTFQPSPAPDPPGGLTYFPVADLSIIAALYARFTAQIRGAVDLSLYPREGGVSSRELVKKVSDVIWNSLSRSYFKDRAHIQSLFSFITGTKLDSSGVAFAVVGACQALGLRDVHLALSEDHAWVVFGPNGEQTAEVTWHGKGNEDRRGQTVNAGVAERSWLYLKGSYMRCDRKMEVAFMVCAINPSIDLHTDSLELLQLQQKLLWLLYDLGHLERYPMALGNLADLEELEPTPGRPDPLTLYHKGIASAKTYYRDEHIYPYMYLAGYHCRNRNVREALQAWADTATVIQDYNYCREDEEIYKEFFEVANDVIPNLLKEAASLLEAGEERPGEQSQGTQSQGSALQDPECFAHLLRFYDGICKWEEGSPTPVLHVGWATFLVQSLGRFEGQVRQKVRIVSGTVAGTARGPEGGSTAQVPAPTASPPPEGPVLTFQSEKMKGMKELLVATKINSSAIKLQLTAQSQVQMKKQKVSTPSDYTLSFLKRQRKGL
method.description: Menin/MLL fluorescence polarization (FP) assay
test.settings: Menin 2 nM, cRho110-Ahx-MBM1/MBM2 peptide 1 nM
I'd be grateful if you could share measured pIC50 for these entries.
The value called pIC50 is obtained by taking minus log10 of the concentration in mol/L.

Sure, the documented pIC50 for Cc1c(C(=O)C2CCN(C(=O)[C@H]3NC[C@@H]4C[C@@H]43)CC2)c2ccncc2n1-c1ccc(F)cc1C(=O)N(CC(F)(F)F)C(C)C (single isomer, unassigned) is 7.66

Sure, the documented pIC50 for C[C@@H]1COC[C@@H](C)N1C(=O)c1cc(F)ccc1-n1cc(C(=O)C2CCN(C(=O)[C@H]3N[C@@H]4CC[C@H]3C4)CC2)c2ccncc21 is 7.54

Sure, the documented pIC50 for CCN(C(=O)c1cc(F)ccc1-n1c(C)c(C(=O)[C@@H]2CCN(C(=O)[C@@H]3CCC4(CC4)N3)[C@@H](C)C2)c2ccncc21)C(C)C (single isomer, unassigned) [Example 52-4] is 5.61

----------
Test system: MV4;11 cells
method.description: Proliferation assay, MV4;11 (CellTiter-Glo, 7 days)
Type: cell-based, human
test.settings: Homo sapiens, MV4-11, 168 h, read-out: MV-4-11 IC50
result.type: IC50 (µM)
Give the quantity in µM, number only.

Sure, the documented IC50 for CC(C)N(C(=O)c1cc(F)ccc1-n1cc(C(=O)C2CCN(C(=O)[C@H]3NC4CCC3CC4)CC2)c2ccncc21)C(C)C is 0.025

Sure, the documented IC50 for CC(C)N(C(=O)c1cc(F)ccc1-n1cc(C(=O)C2CCN(C[C@H]3CC[C@H](NS(C)(=O)=O)CC3)CC2)c2ccncc21)C(C)C is 0.32

Sure, the documented IC50 for CC(C)c1ncccc1-c1cc(F)ccc1-n1cc(C(=O)C2CCN(C(=O)[C@H]3N[C@@H]4CC[C@H]3C4)CC2)c2ccncc21 is 0.024

Sure, the documented IC50 for CC(C)c1cnccc1-c1cc(F)ccc1-n1cc(C(=O)C2CN(C(=O)[C@H]3N[C@@H]4CC[C@H]3C4)C2)c2ccncc21.O=CO is 0.031

Sure, the documented IC50 for C[C@@H]1CCC[C@H](C)N1C(=O)c1cc(F)ccc1-n1cc(C(=O)C2CCN(C(=O)[C@H]3N[C@@H]4CC[C@H]3C4)CC2)c2ccncc21 is 0.103

Sure, the documented IC50 for CC(C)N(C(=O)c1cc(F)ccc1-n1cc(C(=O)[C@@H]2CCN(C(=O)[C@H]3N[C@@H]4CC[C@H]3C4)C2)c2ccncc21)C(C)C is 0.099
